System: HEK293T
Assay Info: plasma membrane surface immunostaining intensity (anti-HA, deep receptor scanning) (arbitrary fluorescence units); higher = higher plasma membrane expression
Condition Details: GPCR class: A (Olfactory)
Below is a list of entries, each paired with its recorded plasma membrane surface immunostaining intensity value.
Measured Metric: plasma membrane surface immunostaining intensity

| Chain | Test Value |
| --- | --- |
| MQRANHSTVTQFILVGFSVFPHLQLMLFLLFLLMYLFTLLGNLLIMATVWSERSLHTPMYLFLCALSVSEILYTVAIIPRMLADLLSTQRSIAFLACASQMFFSFSFGFTHSFLLTVMGYDRYVAICHPLRYNVLMSPRGCACLVGCSWAGGLVMGMVVTSAIFHLAFCGHKEIHHFACHVPPLLKLACGDDVLVVAKGVGLVCITALLGCFLLILLSYAFIVAAILKIPSAEGRNKAFSTCASHLTVVVVHYGFASVIYLKPKSPQSLEGDTLMGITYTVLTPFLSPIIFSLRNKELKVAMKKTFFSKLYPEKNVMM [OR10H1] | 121 |
| MWQEYYFLNVFFPLLKVCCLTINSHVVILLPWECYHLIWKILPYIGTTVGSMEEYNTSSTDFTFMGLFNRKETSGLIFAIISIIFFTALMANGVMIFLIQTDLRLHTPMYFLLSHLSLIDMMYISTIVPKMLVNYLLDQRTISFVGCTAQHFLYLTLVGAEFFLLGLMAYDRYVAICNPLRYPVLMSRRVCWMIIAGSWFGGSLDGFLLTPITMSFPFCNSREINHFFCEAPAVLKLACADTALYETVMYVCCVLMLLIPFSVVLASYARILTTVQCMSSVEGRKKAFATCSSHMTVVSLFYGAAMYTYMLPHSYHKPAQDKVLSVFYTILTPMLNPLIYSLRNKDVTGALKRALGRFKGPQRVSGGVF [OR2T1] | 451 |
| MLMNYSSATEFYLLGFPGSEELHHILFAIFFFFYLVTLMGNTVIIMIVCVDKRLQSPMYFFLGHLSALEILVTTIIVPVMLWGLLLPGMQTIYLSACVVQLFLYLAVGTTEFALLGAMAVDRYVAVCNPLRYNIIMNRHTCNFVVLVSWVFGFLFQIWPVYVMFQLTYCKSNVVNNFFCDRGQLLKLSCNNTLFTEFILFLMAVFVLFGSLIPTIVSNAYIISTILKIPSSSGRRKSFSTCASHFTCVVIGYGSCLFLYVKPKQTQAADYNWVVSLMVSVVTPFLNPFIFTLRNDKVIEALRDGVKRCCQLFRN [OR9A4] | 185 |

* * *

System: HEK293T
Assay Info: plasma membrane surface immunostaining intensity (anti-HA, deep receptor scanning) (arbitrary fluorescence units); higher = higher plasma membrane expression
Condition Details: GPCR class: Taste
Measured Metric: plasma membrane surface immunostaining intensity

| Chain | Test Value |
| --- | --- |
| MLESHLIIYFLLAVIQFLLGIFTNGIIVVVNGIDLIKHRKMAPLDLLLSCLAVSRIFLQLFIFYVNVIVIFFIEFIMCSANCAILLFINELELWLATWLGVFYCAKVASVRHPLFIWLKMRISKLVPWMILGSLLYVSMICVFHSKYAGFMVPYFLRKFFSQNATIQKEDTLAIQIFSFVAEFSVPLLIFLFAVLLLIFSLGRHTRQMRNTVAGSRVPGRGAPISALLSILSFLILYFSHCMIKVFLSSLKFHIRRFIFLFFILVIGIYPSGHSLILILGNPKLKQNAKKFLLHSKCCQ [TAS2R1] | 212 |
| MMGLTEGVFLILSGTQFTLGILVNCFIELVNGSSWFKTKRMSLSDFIITTLALLRIILLCIILTDSFLIEFSPNTHDSGIIMQIIDVSWTFTNHLSIWLATCLGVLYCLKIASFSHPTFLWLKWRVSRVMVWMLLGALLLSCGSTASLINEFKLYSVFRGIEATRNVTEHFRKKRSEYYLIHVLGTLWYLPPLIVSLASYSLLIFSLGRHTRQMLQNGTSSRDPTTEAHKRAIRIILSFFFLFLLYFLAFLIASFGNFLPKTKMAKMIGEVMTMFYPAGHSFILILGNSKLKQTFVVMLRCESGHLKPGSKGPIFS [TAS2R3] | 135 |
| MQAALTAFFVLLFSLLSLLGIAANGFIVLVLGREWLRYGRLLPLDMILISLGASRFCLQLVGTVHNFYYSAQKVEYSGGLGRQFFHLHWHFLNSATFWFCSWLSVLFCVKIANITHSTFLWLKWRFPGWVPWLLLGSVLISFIITLLFFWVNYPVYQEFLIRKFSGNMTYKWNTRIETYYFPSLKLVIWSIPFSVFLVSIMLLINSLRRHTQRMQHNGHSLQDPSTQAHTRALKSLISFLILYALSFLSLIIDAAKFISMQNDFYWPWQIAVYLCISVHPFILIFSNLKLRSVFSQLLLLARGFWVA [TAS2R41] | 129 |

* * *

System: HEK293T
Assay Info: plasma membrane surface immunostaining intensity (anti-HA, deep receptor scanning) (arbitrary fluorescence units); higher = higher plasma membrane expression
Condition Details: GPCR class: A (Olfactory)
Measured Metric: plasma membrane surface immunostaining intensity

| Chain | Measurement Target | Test Value |
| --- | --- | --- |
| MEEENATLLTEFVLTGFLYQPQWKIPLFLAFLVIYLITIMGNLGLIAVIWKDPHLHIPMYLLLGNLAFVDAWISSTVTPKMLNNFLAKSKMISLSECKIQFFSFAISVTTECFLLATMAYDRYVAICKPLLYPAIMTNGLCIRLLILSYVGGILHALIHEGFLFRLTFCNSNIVHHIYCDTIPLSKISCTDSSINFLMVFIFSGSIQVFSIVTILVSYTFVLFAILKKKSDKGVRKAFSTCGAHLFSVSLYYGPLLFIYVGPASPQADDQDMVEPLFYTVIIPLLNPIIYSLRNKQVTVSFTKMLKKHVKVSY [OR5H1] | HEK293T | 124 |
| MDKINQTFVREFILLGLSGYPKLEIIFFALILVMYVVILIGNGVLIIASILDSRLHMPMYFFLGNLSFLDICYTTSSIPSTLVSLISKKRNISFSGCAVQMFFGFAMGSTECFLLGMMAFDRYVAICNPLRYPIIMNKVVYVLLTSVSWLSGGINSTVQTSLAMRWPFCGNNIINHFLCEILAVLKLACSDISVNIVTLAVSNIAFLVLPLLVIFFSYMFILYTILRTNSATGRHKAFSTCSAHLTVVIIFYGTIFFMYAKPKSQDLLGKDNLQATEGLVSMFYGVVTPMLNPIIYSLRNKDVKAAIKYLLSRKAINQ [OR13C4] | HEK293T | 311 |
| MDISEGNKTLVTEFVLTGLTDRPWLHVLFFVVFLVVYLITMVGNLGLIVLIWNDPHLHMPMYLFLGGLAFSDACTSTSITPRMLVNFLDKTAMISLAECITQFYFFASSATTECFLLVMMAYDRYVAICNPLLYPVMMSNKLSAQLLSISYVIGFLHPLVHVSLLLRLTFCRFNIIHYFYCEILQLFKISCNGPSINALMIFIFGAFIQIPTLMTIIISYTRVLFDILKKKSEKGRSKAFSTCGAHLLSVSLYYGTLIFMYVRPASGLAEDQDKVYSLFYTIIIPLLNPFIYSLRNKKVMHALRRVIRK [OR5AC2] | HEK293T | 166 |
| MSGENVTKVSTFILVGLPTAPGLQYLLFLLFLLTYLFVLVENLAIILIVWSSTSLHRPMYYFLSSMSFLEIWYVSDITPKMLEGFLLQQKRISFVGCMTQLYFFSSLVCTECVLLASMAYDRYVAICHPLRYHVLVTPGLCLQLVGFSFVSGFTISMIKVCFISSVTFCGSNVLNHFFCDISPILKLACTDFSTAELVDFILAFIILVFPLLATILSYWHITLAVLRIPSATGCWRAFSTCASHLTVVTVFYTALLFMYVRPQAIDSQSSNKLISAVYTVVTPIINPLIYCLRNKEFKDALKKALGLGQTSH [OR6B2] | HEK293T | 153 |
| MKIANNTVVTEFILLGLTQSQDIQLLVFVLILIFYLIILPGNFLIIFTIRSDPGLTAPLYLFLGNLAFLDASYSFIVAPRMLVDFLSEKKVISYRGCITQLFFLHFLGGGEGLLLVVMAFDRYIAICRPLHCSTVMNPRACYAMMLALWLGGFVHSIIQVVLILRLPFCGPNQLDNFFCDVRQVIKLACTDMFVVELLMVFNSGLMTLLCFLGLLASYAVILCHVRRAASEGKNKAMSTCTTRVIIILLMFGPAIFIYMCPFRALPADKMVSLFHTVIFPLMNPMIYTLRNQEVKTSMKRLLSRHVVCQVDFIIRN [OR4N4] | HEK293T | 255 |
| MSNATLLTAFILTGLPHAPGLDAPLFGIFLVVYVLTVLGNLLILLVIRVDSHLHTPMYYFLTNLSFIDMWFSTVTVPKMLMTLVSPSGRTISFHSCVAQLYFFHFLGSTECFLYTVMSYDRYLAISYPLRYTNMMTGRSCALLATGTWLSGSLHSAVQTILTFHLPYCGPNQIQHYFCDAPPILKLACADTSANEMVIFVNIGLVASGCFVLIVLSYVSIVCSILRIRTSEGRHRAFQTCASHCIVVLCFFGPGLFIYLRPGSRDALHGVVAVFYTTLTPLFNPVVYTLRNKEVKKALLKLKNGSVFAQGE [OR10G7] | HEK293T | 315 |
| MVLNVYCCFFQISDIQTMKINQTILKEFILVGFSVYPHVQTFLFVVFFCLYLLTLAGNLIIMGLTWVDRSLHTPMYLFLSALSFSETCYTLTIVPKMLEDLLAKDRSISVTGCSLQMCFFLGLGGTNCIILTLMGYDRFLAICNPLRYPLLMTNIVCGQLVASACTAGFFISLTETALIFRDSFCRPNLVKHFFCHMLAVIRLSCIDSNHTEFIITLISVSGLLGTLLLIILTDVFIISTVLRIPSAEGKQKAFTTCASHLTVVIIHFGFASIVYLKPEASGDDTLIAVPYTVITPFLSPIIFSLRNKDMKNAFRRMMGNTVALKK [OR10X1] | HEK293T | 233 |
| MARENSTFNSDFILLGIFNHSPTHTFLFFLVLAIFSVAFMGNSVMVLLIYLDTQLHTPMYLLLSQLSLMDLMLICTTVPKMAFNYLSGSKSISMAGCATQIFFYTSLLGSECFLLAVMAYDRYTAICHPLRYTNLMSPKICGLMTAFSWILGSTDGIIDVVATFSFSYCGSREIAHFFCDFPSLLILSCSDTSIFEKILFICCIVMIVFPVAIIIASYARVILAVIHMGSGEGRRKAFTTCSSHLLVVGMYYGAALFMYIRPTSDRSPTQDKMVSVFYTILTPMLNPLIYSLRNKEVTRAFMKILGKGKSGE [OR2M3] | HEK293T | 138 |
| MARENHSLAAEFILIGFTNYPELKTLLFVVFSAIYLVTMVGNLGLVALIYVERRLLTPMYIFLGNLALMDSCCSCAVTPKMLENFFSEDRIISLYECMAQFYFLCLAETTDCFLLATMAYDRYVAICHPLQYHTMMSKTLCIRMTTGAFKAGNLHSMIHVGLLLRLTFCRSNKIHHFFCDILPLYRLSCTDPSINELMIYIFSIPIQIFTIATVLISYLCILLTVFKMKSKEGRGKAFSTCASHFLSVSIFYICLLMYIGPSEEGDKDTPVAIFYAIVIPLLNPFIYSLRNKEVINVLKKIMRNYNILKQTCSIANLFLIY [OR5K4] | HEK293T | 254 |
